Ref: PubChem BioAssay

target: Voltage-gated potassium channel subunit beta-2 (Rattus norvegicus) (UniProt P62483); test: KvBeta positive modulators, primary screen, biochemical, NADPH fluorescence (AID 623); conditions: Recombinant KvBeta, NADPH fluorescence decrease slope, 10 min; at 10 µM; active compounds read low;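 also: fluorescence intensity change per second fitted from 20 to 320 s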
Sequence (P62483 whole entry, looked up): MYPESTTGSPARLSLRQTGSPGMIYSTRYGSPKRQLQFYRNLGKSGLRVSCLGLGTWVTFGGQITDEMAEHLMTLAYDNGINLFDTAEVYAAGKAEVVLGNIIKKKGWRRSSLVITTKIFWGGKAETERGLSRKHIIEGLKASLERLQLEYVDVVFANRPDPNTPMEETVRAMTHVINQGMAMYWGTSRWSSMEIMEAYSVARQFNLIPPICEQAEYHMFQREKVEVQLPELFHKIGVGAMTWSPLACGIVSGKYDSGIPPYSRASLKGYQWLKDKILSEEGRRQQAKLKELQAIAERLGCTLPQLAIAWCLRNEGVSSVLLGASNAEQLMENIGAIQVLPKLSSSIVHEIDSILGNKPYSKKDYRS
Calls of active or inactive are those of the source.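 The calls were made as follows: active = NADPH fluorescence slope more negative than the mean of all samples by about 3 SD, 99.7% confidence; inactive = the rest.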
The molecules listed here are annotated with their NADPH fluorescence slope.

molecule=CC1(C)Cc2ccccc2-c2c1c(=O)n(-c1ccccc1)c1nnnn21 result_type="NADPH fluorescence slope" measurement="-1.7e-05 (inactive)"
molecule="CC1NC(=O)NC1CCCCCC(=O)NCCc1ccccc1 (stereo not drawn)" result_type="NADPH fluorescence slope" measurement="-1.4e-05 (inactive)"
molecule=COc1cc(C(=O)OCC(=O)N(C)Cc2ccccc2)cc(OC)c1OC result_type="NADPH fluorescence slope" measurement="-0.00012 (inactive)"
molecule=O=C(O)CCc1nn2cc(-c3ccccc3)nc2[nH]c1=O result_type="NADPH fluorescence slope" measurement="2.1e-06 (inactive)"

The recorded NADPH fluorescence slope for COc1ccccc1NC(=O)CSc1nnc(-c2ccc(NC(C)=O)cc2)n1C is -0.000106 (inactive)

Briefly, NADPH fluorescence slope measured for CCOC(=O)c1cc2n(n1)C(C(F)(F)C(F)(F)F)CC(C)N2 (stereo not drawn) : 2.3e-05 (inactive)

For this molecule ( O=C(Nc1ccc2c(c1)OCCO2)C1CCCN(S(=O)(=O)c2cnc[nH]2)C1 (stereo not drawn) ), measured NADPH fluorescence slope is -4.5e-07 (inactive)

Noted for CCCCOc1ccc(C(=O)N2CCCC2C(=O)O)cc1 (stereo not drawn) : its NADPH fluorescence slope reads -4.7e-05 (inactive)
